- Tested on: HPV-16
- Assay notes: qPCR sensitivity against HPV-HNSCC tumor samples diluted among 10 ng normal human DNA
- Condition notes: Sample # 17
Recorded metric: Threshold of tumor cell numbers for HPV-16 detection (tumor cells)

BR E1-6: HPV-16 E1 region primer/probe set, SEQ ID NO: 43-45 (nucleic acid, chemistry not given here) DNA 1: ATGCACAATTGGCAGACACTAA DNA 2: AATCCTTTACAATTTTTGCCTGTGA DNA 3: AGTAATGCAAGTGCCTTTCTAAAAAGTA; 6.0
E6: previously designed (historical) HPV-16 E6 primers and Taqman probe, SEQ ID NO: 7-9, positive control (nucleic acid, Taqman probe, labels not given here) DNA 1: TCAGGACCCACAGGAGCG DNA 2: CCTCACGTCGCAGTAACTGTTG DNA 3: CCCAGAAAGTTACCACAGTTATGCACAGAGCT; 30.0
HR E5L2-4: primer/probe set for junction between E5 and L2, SEQ ID NO: 55-57 (same as SEQ ID NO: 4-6) (nucleic acid, chemistry not given here) DNA 1: GCAAAACGCACAAAACGTGC DNA 2: GACATGTACCTGCCTGTTTGC DNA 3: CGGCTACCCAACTTTATAAAACA; 6.0
BR E1-5: HPV-16 E1 region primer/probe set, SEQ ID NO: 40-42 (same as SEQ ID NO: 1-3) (nucleic acid, chemistry not given here) DNA 1: GCACAATTGGCAGACACTAAT DNA 2: GCACAATCCTTTACAATTTTTGCC DNA 3: AGTAATGCAAGTGCCTTTCTAAAAAGTAATTC; 1.2
BR E1-4: HPV-16 E1 region primer/probe set, SEQ ID NO: 37-39 (nucleic acid, chemistry not given here) DNA 1: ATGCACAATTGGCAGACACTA DNA 2: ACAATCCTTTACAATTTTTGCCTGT DNA 3: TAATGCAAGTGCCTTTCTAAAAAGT; 6.0
E7: previously designed (historical) HPV-16 E7 primers and Taqman probe, SEQ ID NO: 10-12; part of CLIA test (nucleic acid, Taqman probe, labels not given here, part of CLIA test) DNA 1: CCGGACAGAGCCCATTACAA DNA 2: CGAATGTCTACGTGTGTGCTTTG DNA 3: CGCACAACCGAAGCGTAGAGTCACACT; 1.2
BR E6-1: HPV-16 E6 region (172-373 bp) primer/probe set, SEQ ID NO: 58-60 (nucleic acid, chemistry not given here) DNA 1: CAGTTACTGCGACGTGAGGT DNA 2: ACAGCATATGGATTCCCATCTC DNA 3: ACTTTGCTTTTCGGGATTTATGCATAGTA; 6.0
